- systemUnderTest: T1, hMC3-R (human, UniProt P41968 1-323)
- T1 construct: whole, on cells; Assayed as membranes of CHO-K1 cells expressing the receptor; also called hMC-R receptor subtype 3; melacortin-3 (MC3-R)
- T1 sequence (P41968 whole entry): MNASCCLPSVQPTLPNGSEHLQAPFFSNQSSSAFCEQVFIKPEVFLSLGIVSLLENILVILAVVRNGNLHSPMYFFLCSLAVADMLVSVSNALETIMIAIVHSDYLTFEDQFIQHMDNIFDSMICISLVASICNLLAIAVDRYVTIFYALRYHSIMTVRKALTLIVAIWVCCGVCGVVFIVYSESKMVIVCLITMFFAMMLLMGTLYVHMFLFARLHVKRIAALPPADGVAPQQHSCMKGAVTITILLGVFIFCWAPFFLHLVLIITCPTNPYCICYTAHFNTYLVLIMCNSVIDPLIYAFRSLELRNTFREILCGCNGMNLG
- procedureDetails: competition with [125I]-NDP-α-MSH, CHO-K1 membranes
Bridge positions count the residues as written; N and C are the ends. Square brackets hold non-standard residues; d marks the D form. Bta = N[C@@H](Cc1csc2ccccc12)C(=O)O; Pen = CC(C)(S)[C@H](N)C(=O)O; Nle = CCCC[C@H](N)C(=O)O; GABA = NCCCC(=O)O
observationType: pKi
Please report pKi as the negative decimal logarithm of the molar concentration, giving only the number.

Below, each entry is followed by its recorded pKi result.
INSERT INTO assay_data (binder, observationtype, readoutvalue) VALUES
  ('Ac-[Nle]D[dA]H[dF]R[Bta]K-NH2 (lactam 2-8; SMILES CCCC[C@H](NC(C)=O)C(=O)N[C@H]1CC(=O)NCCCC[C@@H](C(N)=O)NC(=O)[C@H](Cc2csc3ccccc23)NC(=O)[C@H](CCCNC(=N)N)NC(=O)[C@@H](Cc2ccccc2)NC(=O)[C@H](Cc2c[nH]cn2)NC(=O)[C@@H](C)NC1=O) [Ac-Nle-c(Asp-D-Ala-His-D-Phe-Arg-Bal-Lys)-NH2]', 'pKi', 6.35),
  ('Ac-[dR]DH[dF]RWAK-NH2 (lactam 2-8) [Ac-D-Arg-c(Asp-His-D-Phe-Arg-Trp-Ala-Lys)-NH2]', 'pKi', 7.34);

// below: pKi requested for another binder
Query :: Could you share which pKi value was measured for Ac-[dR]CH[dF]RW[GABA][Pen]-NH2 (disulfide 2-8; SMILES CC(=O)N[C@H](CCCNC(=N)N)C(=O)N[C@H]1CSSC(C)(C)[C@@H](C(N)=O)NC(=O)CCCNC(=O)[C@H](Cc2c[nH]c3ccccc23)NC(=O)[C@H](CCCNC(=N)N)NC(=O)[C@@H](Cc2ccccc2)NC(=O)[C@H](Cc2c[nH]cn2)NC1=O) [Ac-D-Arg-c(Cys-His-D-Phe-Arg-Trp-Gaba-Pen)-NH2] ?
Result :: 6.76
